pIC50 values for the compounds below.
biological target: human TLR9 (Homo sapiens); assay: TLR9 inhibition reporter assay (HEK-Blue cells, SEAP reporter, ODN2006 stimulation); conditions: HEK-Blue cells overexpressing human TLR9, ODN2006 5 nM
Sequence (Q9NR96 26-1032): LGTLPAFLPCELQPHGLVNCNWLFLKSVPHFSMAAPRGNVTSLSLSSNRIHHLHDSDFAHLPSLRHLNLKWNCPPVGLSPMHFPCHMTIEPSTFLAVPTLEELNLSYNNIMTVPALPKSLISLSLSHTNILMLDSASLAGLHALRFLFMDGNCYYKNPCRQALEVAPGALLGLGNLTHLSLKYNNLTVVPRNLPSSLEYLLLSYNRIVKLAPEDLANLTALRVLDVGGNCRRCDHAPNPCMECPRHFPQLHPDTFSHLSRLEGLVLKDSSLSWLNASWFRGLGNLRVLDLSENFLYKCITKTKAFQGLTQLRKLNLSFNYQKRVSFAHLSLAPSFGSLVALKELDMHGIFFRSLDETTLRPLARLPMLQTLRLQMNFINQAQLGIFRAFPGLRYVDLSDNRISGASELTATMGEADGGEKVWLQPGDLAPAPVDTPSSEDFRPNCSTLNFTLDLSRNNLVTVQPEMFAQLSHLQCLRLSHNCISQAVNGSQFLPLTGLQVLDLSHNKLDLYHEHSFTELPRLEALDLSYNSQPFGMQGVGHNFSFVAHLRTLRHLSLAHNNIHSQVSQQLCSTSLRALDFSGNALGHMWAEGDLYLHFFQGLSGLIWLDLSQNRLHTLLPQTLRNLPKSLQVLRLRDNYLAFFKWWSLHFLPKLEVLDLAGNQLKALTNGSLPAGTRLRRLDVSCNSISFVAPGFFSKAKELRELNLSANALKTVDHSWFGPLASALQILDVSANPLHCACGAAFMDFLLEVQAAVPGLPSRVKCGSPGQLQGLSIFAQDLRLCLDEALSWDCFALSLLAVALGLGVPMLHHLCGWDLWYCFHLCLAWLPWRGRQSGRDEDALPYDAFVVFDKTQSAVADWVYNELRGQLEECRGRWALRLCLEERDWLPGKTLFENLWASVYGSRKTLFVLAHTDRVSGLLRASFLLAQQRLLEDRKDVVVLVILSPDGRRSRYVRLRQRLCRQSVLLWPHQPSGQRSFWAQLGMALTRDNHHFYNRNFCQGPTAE
The value called pIC50 is obtained by taking minus log10 of the concentration in mol/L.

Reference set (4 entries):
compound	pIC50
CCC(CC)CN1CCC(N2CCC(c3ccc4[nH]c(-c5ccc(OC)c(OC)c5)c(C)c4c3)CC2)CC1	6.62
COc1ccc(-c2[nH]c3ccc(C4CCN(C5CCN(C6CCC(O)CC6)CC5)CC4)cc3c2C)cc1OC (stereo not shown)	6.72
CCN1CCCC(N2CCC(c3ccc4[nH]c(-c5ccc(OC)c(OC)c5)c(C)c4c3)CC2)C1 (stereo not shown)	4.76
COc1ccc(-c2[nH]c3ccc(C4CCN(Cc5nccn5C)CC4)cc3c2C(C)C)cc1OC	5.53

For human TLR9 (Homo sapiens), provide pIC50 of COc1ccc(-c2[nH]c3ccc(C4CCN(Cc5ccc(N(C)C)cc5)CC4)cc3c2C(C)C)cc1OC please.
5.71

Then COc1ccc(-c2[nH]c3ccc(C4CCN(Cc5cccnc5)CC4)cc3c2C)cc1OC ?
5.97

---

target: human TLR8 (Homo sapiens); assay: TLR8 inhibition reporter assay (HEK-Blue cells, SEAP reporter, R848 stimulation); conditions: HEK-Blue cells overexpressing human TLR8, R848 15.9 μM
Sequence (Q9NR97 27-1041): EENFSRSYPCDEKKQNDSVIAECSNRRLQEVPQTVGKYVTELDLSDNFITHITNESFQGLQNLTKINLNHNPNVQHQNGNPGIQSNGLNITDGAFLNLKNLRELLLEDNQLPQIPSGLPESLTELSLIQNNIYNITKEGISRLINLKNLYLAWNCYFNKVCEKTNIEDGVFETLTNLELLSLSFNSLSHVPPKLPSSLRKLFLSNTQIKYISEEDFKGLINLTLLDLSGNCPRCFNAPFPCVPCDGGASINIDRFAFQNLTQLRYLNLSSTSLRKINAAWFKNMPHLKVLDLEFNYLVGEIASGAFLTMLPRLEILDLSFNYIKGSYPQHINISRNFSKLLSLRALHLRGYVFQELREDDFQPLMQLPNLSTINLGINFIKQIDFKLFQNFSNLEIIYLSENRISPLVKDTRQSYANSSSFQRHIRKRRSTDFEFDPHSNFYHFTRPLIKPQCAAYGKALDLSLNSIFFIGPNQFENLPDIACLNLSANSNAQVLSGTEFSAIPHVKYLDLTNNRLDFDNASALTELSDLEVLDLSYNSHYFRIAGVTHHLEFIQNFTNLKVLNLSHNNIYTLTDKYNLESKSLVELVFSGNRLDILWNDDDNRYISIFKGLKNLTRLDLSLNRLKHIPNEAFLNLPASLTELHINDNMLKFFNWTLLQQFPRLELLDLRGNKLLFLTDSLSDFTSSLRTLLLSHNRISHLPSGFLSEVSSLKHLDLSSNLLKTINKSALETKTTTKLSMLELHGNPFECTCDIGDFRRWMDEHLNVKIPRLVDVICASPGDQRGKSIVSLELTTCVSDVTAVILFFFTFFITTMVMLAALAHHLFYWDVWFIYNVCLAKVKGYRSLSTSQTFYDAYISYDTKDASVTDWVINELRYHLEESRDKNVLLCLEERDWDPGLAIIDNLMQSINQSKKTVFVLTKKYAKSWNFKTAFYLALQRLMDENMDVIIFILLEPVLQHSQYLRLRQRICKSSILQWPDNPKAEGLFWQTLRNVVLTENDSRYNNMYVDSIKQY
IC50 values for the molecules below.

molecule	experimental.endpoint	reported
CCc1c(-c2ccc(OC)c(OC)c2)[nH]c2ccc(C3CCN(C4CCN(CC)CC4)CC3)cc12 [Example 149]	IC50	31 nM

Which measured IC50 value corresponds to COc1ccc(-c2[nH]c3ccc(C4CCN(C(=O)CN(C)C)CC4)cc3c2C(C)C)cc1OC [Example 209] ?
24 nM

Then COc1ccc(-c2[nH]c3ccc(C4CCN(C(=O)CNCCO)CC4)cc3c2C(C)C)cc1OC [Example 212] ?
20 nM

Then COc1ccc(-c2[nH]c3ccc(C4CCN(C(=O)C[C@H](C)O)CC4)cc3c2CC(F)(F)F)cc1OC [Example 352] ?
765 nM

Then COc1ccc(-c2[nH]c3ccc(C4CCN(CC(=O)NCCN(C)C)CC4)cc3c2CC(F)(F)F)cc1OC [Example 380] ?
55 nM

Then COc1ccc(-c2[nH]c3ccc(C4CCN(C(=O)CN5CCC[C@H](C(=O)NCC(N)=O)C5)CC4)cc3c2C(C)C)cc1OC [Example 298] ?
27 nM

Then COc1ccc(-c2[nH]c3ccc(C4CCN(C(=O)CN5CCC[C@@H](C(=O)N6CCC(CCO)CC6)C5)CC4)cc3c2C(C)C)cc1OC [Example 306] ?
73 nM

Then CCCc1c(-c2ccc(OC)c(OC)c2)[nH]c2ccc(C3CCN(C4CCN(CC(C)C)CC4)CC3)cc12 [Example 121] ?
65 nM

Then COc1ccc(-c2[nH]c3ccc(C4CCNCC4F)cc3c2C(C)C)cc1OC (single isomer, unassigned) [Example 323] ?
20 nM

Then CCc1c(-c2ccc(OC)c(OC)c2)[nH]c2ccc(C3CCN(C4CCN(Cc5nccn5C)CC4)CC3)cc12 [Example 136] ?
330 nM

Then COc1ccc(-c2[nH]c3ccc(C4CCN(C5CCN(C6CCCCC6)CC5)CC4)cc3c2C)cc1OC [Example 68] ?
182 nM

Then COc1ccc(-c2[nH]c3ccc(C4CCN(C(=O)CNC[C@@H](F)C(C)(C)O)CC4)cc3c2C(C)C)cc1OC [Example 251] ?
750 nM

Then COc1ccc(-c2[nH]c3ccc(C4CCN(C(=O)CN5CCC[C@@H](C(=O)N6CCN(C(C)C)CC6)C5)CC4)cc3c2C(C)C)cc1OC [Example 302] ?
18 nM

Then COc1ccc(-c2[nH]c3ccc(C4CCN(C5CCN(C6CCCC6)CC5)CC4)cc3c2C(C)C)cc1OC [Example 202] ?
13 nM

---

IC50 values for the compounds below.
molecular target: human TLR8 (Homo sapiens); test: TLR8 inhibition reporter assay (HEK-Blue cells, SEAP reporter, R848 stimulation); conditions: HEK-Blue cells overexpressing human TLR8, R848 15.9 μM

compound	experimental.endpoint	reported
CCc1c(-c2ccc(OC)c(OC)c2)[nH]c2ccc(C3CCN(C4CCN(Cc5ccc(C)s5)CC4)CC3)cc12 [Example 140]	IC50	240 nM

Which measured IC50 value corresponds to CCc1c(-c2ccc(OC)c(OC)c2)[nH]c2cc(C)c(C3CCN(CCNC)CC3)cc12 [Example 188] ?
213 nM

Then COc1ccc(-c2[nH]c3ccc(C4CCN(C(=O)Cc5c[nH]cn5)CC4)cc3c2CC(F)(F)F)cc1OC [Example 334] ?
412 nM

Then COc1ccc(-c2[nH]c3ccc(C4CCN(C5CCN(CC6CC6)CC5)CC4)cc3c2C)cc1OC [Example 3] ?
216 nM

Then CCN(CC)C(=O)C1CCCN(CC(=O)N2CCC(c3ccc4[nH]c(-c5ccc(OC)c(OC)c5)c(CC(F)(F)F)c4c3)CC2)C1 (stereo not drawn) [Example 418] ?
77 nM

Then CCN(CC)C(=O)C1CCCN(CC(=O)N2CCC(c3ccc4[nH]c(-c5ccc(OC)c(OC)c5)c(CC(F)(F)F)c4c3)CC2)C1 (stereo not drawn) [Example 420] ?
25 nM

Then CCc1c(-c2ccc(OC)c(OC)c2)[nH]c2ccc(C3CCN(C4CCN(Cc5ccsc5)CC4)CC3)cc12 [Example 142] ?
101 nM

Then COc1ccc(-c2[nH]c3ccc(C4CCN(C(=O)CN5CCC[C@H](C(=O)NCC#N)C5)CC4)cc3c2C(C)C)cc1OC [Example 297] ?
19 nM

Then COc1ccc(-c2[nH]c3ccc(C4CCN(C(=O)CS(C)(=O)=O)CC4)cc3c2CC(F)(F)F)cc1OC [Example 347] ?
767 nM

---

target: human TLR9 (Homo sapiens); assay: TLR9 inhibition reporter assay (HEK-Blue cells, SEAP reporter, ODN2006 stimulation); settings: HEK-Blue cells overexpressing human TLR9, ODN2006 5 nM
pIC50: −log10 of the molar value.
pIC50 of 6 or higher: 1. Under 6: 0.

Illustrative cases are given below, each with its answer.
molecule	target.entity	category
COc1ccc(-c2[nH]c3ccc(C4CCN(C(=O)CN[C@H]5CC[C@H](N)CC5)CC4)cc3c2C(C)C)cc1OC	human TLR9 (Homo sapiens)	1
CCc1c(-c2ccc(OC)c(OC)c2)[nH]c2ccc(C3CCN(C(=O)CNC4(CO)CCCC4)CC3)cc12	human TLR9 (Homo sapiens)	0
COc1ccc(-c2[nH]c3ccc(C4CCN(C(=O)CN5CCC[C@@H](C(=O)N6CCCC6)C5)CC4)cc3c2C(C)C)cc1OC	human TLR9 (Homo sapiens)	0
COc1ccc(-c2[nH]c3ccc(C4CCN(C5CCCNCC5)CC4)cc3c2C)cc1OC (stereo not drawn)	human TLR9 (Homo sapiens)	1
CCc1c(-c2ccc(OC)c(OC)c2)[nH]c2ccc(C3CCN(C4CCN(Cc5ccc(C)s5)CC4)CC3)cc12	human TLR9 (Homo sapiens)	1
COc1ccc(-c2[nH]c3ccc(C4CCN(Cc5ccc(OCCCN(C)C)cc5)CC4)cc3c2C)cc1OC	human TLR9 (Homo sapiens)	1
CCN(CC)C(=O)C1CCCN(CC(=O)N2CCC(c3ccc4[nH]c(-c5ccc(OC)c(OC)c5)c(C(C)C)c4c3)CC2)C1 (stereo not drawn) [Example 248]	human TLR9 (Homo sapiens)	1
CCc1c(-c2ccc(OC)c(OC)c2)[nH]c2ccc(C3CCN(C4CCN(Cc5sccc5C)CC4)CC3)cc12	human TLR9 (Homo sapiens)	1
COc1ccc(-c2[nH]c3ccc(C4CCN(CC(=O)NCCCN5CCCC5=O)CC4)cc3c2CC(F)(F)F)cc1OC	human TLR9 (Homo sapiens)	0
COc1ccc(-c2[nH]c3ccc(C4CCN(C(=O)CN5CCC[C@H](C(=O)N6C(C)CCC6C)C5)CC4)cc3c2C(C)C)cc1OC (stereo partly drawn)	human TLR9 (Homo sapiens)	1

pIC50 >= 6 for CCC(CC)CN1CCC(c2ccc3[nH]c(-c4ccc(OC)c(OC)c4)c(C(C)C)c3c2)CC1 ?
0

Then COc1ccc(-c2[nH]c3ccc(C4CCN(C5CCN(CC(C)C)CC5)CC4)cc3c2C)cc1OC ?
1

---

Target: human TLR7 (Homo sapiens)
Sequence (Q9NYK1 27-1049): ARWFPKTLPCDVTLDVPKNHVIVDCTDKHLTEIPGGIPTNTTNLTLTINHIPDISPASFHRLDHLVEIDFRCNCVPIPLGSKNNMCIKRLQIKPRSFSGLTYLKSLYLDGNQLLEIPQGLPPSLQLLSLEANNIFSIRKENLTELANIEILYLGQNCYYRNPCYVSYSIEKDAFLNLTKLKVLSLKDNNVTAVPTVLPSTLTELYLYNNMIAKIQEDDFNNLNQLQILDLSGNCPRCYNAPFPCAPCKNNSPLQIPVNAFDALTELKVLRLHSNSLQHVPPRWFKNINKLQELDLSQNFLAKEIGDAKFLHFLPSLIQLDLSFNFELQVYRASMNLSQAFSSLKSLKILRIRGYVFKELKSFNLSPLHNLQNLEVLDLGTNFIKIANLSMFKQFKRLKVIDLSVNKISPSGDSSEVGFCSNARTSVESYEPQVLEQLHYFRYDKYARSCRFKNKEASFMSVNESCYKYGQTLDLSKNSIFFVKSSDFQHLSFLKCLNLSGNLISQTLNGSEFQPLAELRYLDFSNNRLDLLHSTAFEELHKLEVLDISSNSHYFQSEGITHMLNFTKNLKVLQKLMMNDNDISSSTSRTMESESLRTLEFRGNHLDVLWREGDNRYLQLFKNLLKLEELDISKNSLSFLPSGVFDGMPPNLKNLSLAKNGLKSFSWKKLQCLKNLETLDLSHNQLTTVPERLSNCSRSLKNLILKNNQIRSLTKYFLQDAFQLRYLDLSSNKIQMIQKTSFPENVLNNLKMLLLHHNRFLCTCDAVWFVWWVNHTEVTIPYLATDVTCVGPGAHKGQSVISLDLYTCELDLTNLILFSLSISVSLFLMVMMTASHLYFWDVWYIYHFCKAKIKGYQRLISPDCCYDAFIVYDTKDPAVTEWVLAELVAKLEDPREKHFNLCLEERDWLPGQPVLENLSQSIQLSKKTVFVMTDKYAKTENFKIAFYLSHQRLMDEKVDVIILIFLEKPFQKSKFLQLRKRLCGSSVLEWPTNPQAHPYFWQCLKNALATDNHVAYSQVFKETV
Assay: TLR7 inhibition reporter assay (HEK-Blue cells, SEAP reporter, gardiquimod stimulation)
Details: HEK-Blue cells overexpressing human TLR7, gardiquimod 7.5 μM
experimental.endpoint: IC50 (nM)
Numbers only here, please. The scale is nM.

Reference set (6 entries):
molecule	IC50 (nM)
COc1ccc(-c2[nH]c3ccc(C4CCNCC4F)cc3c2C(C)C)cc1OC (single isomer, unassigned) [Example 324]	51
COc1ccc(-c2[nH]c3ccc(C4CCN(Cc5cncn5C)CC4)cc3c2C)cc1OC [Example 40]	512
COc1ccc(-c2[nH]c3ccc(C4CCN(C(=O)CN5CCC[C@@H](C(=O)NCC#N)C5)CC4)cc3c2C(C)C)cc1OC [Example 308]	37
CCc1c(-c2ccc(OC)c(OC)c2)[nH]c2c(F)cc(C3CCN(C4CCN(CC(C)C)CC4)CC3)cc12 [Example 190]	588
COc1ccc(-c2[nH]c3ccc(C4CCN(C(=O)CN5CCC[C@H](C(=O)N6CCCC6)C5)CC4)cc3c2C(C)C)cc1OC [Example 287]	38
COc1ccc(-c2[nH]c3ccc(C4CCN(C5CCN(CCC(C)O)CC5)CC4)cc3c2C)cc1OC (stereo not shown) [Example 56]	409

API: the following record is the query input.
For human TLR7 (Homo sapiens), provide IC50 of COc1ccc(-c2[nH]c3ccc(C4CCN(C(=O)COC(C)C)CC4)cc3c2C(C)C)cc1OC [Example 314] please.
284
